Target: NMDA NR1/NR2B receptor (Homo sapiens (Human))
Sequence (Q13224 27-1484, other chains not shown): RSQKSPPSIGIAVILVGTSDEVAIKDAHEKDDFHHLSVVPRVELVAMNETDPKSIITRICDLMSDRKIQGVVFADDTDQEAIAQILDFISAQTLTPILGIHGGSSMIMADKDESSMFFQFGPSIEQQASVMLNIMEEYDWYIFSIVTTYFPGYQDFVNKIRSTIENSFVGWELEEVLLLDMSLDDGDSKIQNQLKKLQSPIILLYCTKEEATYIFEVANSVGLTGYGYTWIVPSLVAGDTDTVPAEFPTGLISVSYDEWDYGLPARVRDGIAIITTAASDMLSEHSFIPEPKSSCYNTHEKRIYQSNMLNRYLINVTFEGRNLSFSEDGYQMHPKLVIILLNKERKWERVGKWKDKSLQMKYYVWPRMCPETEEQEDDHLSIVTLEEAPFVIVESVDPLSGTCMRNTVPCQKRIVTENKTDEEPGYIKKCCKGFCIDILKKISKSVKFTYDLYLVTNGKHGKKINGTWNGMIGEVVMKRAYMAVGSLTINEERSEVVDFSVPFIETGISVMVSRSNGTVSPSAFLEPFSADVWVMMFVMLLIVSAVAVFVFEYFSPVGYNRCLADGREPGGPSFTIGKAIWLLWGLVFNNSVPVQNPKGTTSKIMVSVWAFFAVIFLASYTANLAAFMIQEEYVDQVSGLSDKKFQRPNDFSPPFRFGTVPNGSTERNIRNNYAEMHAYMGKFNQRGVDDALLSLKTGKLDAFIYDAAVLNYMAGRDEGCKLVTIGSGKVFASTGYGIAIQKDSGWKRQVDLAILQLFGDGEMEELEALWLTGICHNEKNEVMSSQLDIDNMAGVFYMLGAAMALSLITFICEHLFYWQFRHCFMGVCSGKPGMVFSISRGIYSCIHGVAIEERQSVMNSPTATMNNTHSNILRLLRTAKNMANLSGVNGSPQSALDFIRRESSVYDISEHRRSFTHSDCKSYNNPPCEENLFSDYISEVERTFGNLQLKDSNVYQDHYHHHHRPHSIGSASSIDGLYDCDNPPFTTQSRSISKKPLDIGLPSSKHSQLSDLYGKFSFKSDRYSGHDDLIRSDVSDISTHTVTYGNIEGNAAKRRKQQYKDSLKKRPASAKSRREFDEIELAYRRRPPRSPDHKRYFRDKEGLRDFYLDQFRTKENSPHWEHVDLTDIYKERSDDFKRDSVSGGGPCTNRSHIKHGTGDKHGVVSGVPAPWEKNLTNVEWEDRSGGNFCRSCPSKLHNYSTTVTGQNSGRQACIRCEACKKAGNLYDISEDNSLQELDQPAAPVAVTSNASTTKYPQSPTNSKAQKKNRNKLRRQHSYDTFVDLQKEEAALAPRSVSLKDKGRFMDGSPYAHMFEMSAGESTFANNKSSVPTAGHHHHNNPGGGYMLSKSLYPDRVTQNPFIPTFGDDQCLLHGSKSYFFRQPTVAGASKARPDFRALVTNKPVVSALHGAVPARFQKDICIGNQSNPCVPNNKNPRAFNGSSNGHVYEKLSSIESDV
Assay: In vitro NMDA NR1/NR2B cell assay (FLIPR, intracellular calcium induced by glycine/glutamate)
Conditions: HEK293 NR1/NR2B, 20 μM glycine / 1 μM glutamate, read-out: In vitro NR2B affinity, IC50
Procedure: A human HEK293 cell line with tetracyclin-inducible expression of NMDA NR1/NR2B receptor was used as a test system for compound efficacy and potency. The cell line was purchased from ChanTest, Catalog #CT6121. Compound activity was determined by measuring the effect of compounds on intracellular calcium concentration induced by glycine/glutamate agonism in a FLIPRtetra system (Molecular Devices). […] The output file of the reader contains the well number and measured average fluorescence units. […]
pIC50: −log10 of the molar value.
measurement_kind: pIC50

1. CNC(=O)[C@@H]1CN(Cc2cnc(Oc3ccc(Cl)cc3)cn2)CCO1 [Example 7]
2. CNC(=O)[C@@H]1CN(Cc2cnc(Oc3ccc(F)cc3F)cn2)CCO1 [Example 6]
// compare: 1 vs 2 , metric pIC50, want the smaller Response format: the label of the selected entry.
1
(1: 6.00, 2: 7.06)

1. CCNC(=O)[C@@H]1CN(Cc2cnc(Oc3ccccc3Cl)cn2)CCO1 [Example 33]
2. CNC(=O)[C@@H]1CN(Cc2cnc(Oc3c(F)cccc3F)cn2)CCO1 [Example 35]
Quick check, higher pIC50 between 1 and 2 ? Refer to your chosen item by its label in the answer.
2
